# assayExplanation: in vitro
# conditionDetails: human, microsomes
measuredParameter: half-life (min)
The figure you give is taken to be in min; do not add the unit.

Can you look up the measured half-life of `CC(=O)CC(=O)Nc1ccc2ncnc(Nc3cccc(Br)c3)c2c1` for me?
17

----------
# assayExplanation: Plasma stability in mice (20 mg/kg IP)
# Type: in vivo
# conditionDetails: mouse, intraperitoneal, 8 h
Listing: concentration at 8 h of selected molecules
Note: unit nM is implicit; provide only the numeric part.

- C=CC(=O)Nc1ccc2ncnc(Nc3cccc(Br)c3)c2c1 [PD168393, reference compound]: 50

What measured concentration at 8 h goes with CC(=O)CC(=O)Nc1ccc2ncnc(Nc3cccc(Br)c3)c2c1 [Compound 3a] ?
100

----------
# assayExplanation: Plasma stability in mice (20 mg/kg IP)
# Format: in vivo
# conditionDetails: mouse, intraperitoneal, 1 h
Below, each of the compounds is paired with its reported concentration at 1 h value.
Respond with the bare value in µM.

• CC(=O)CC(=O)Nc1ccc2ncnc(Nc3cccc(Br)c3)c2c1 = 29.1

--- query ---
Look up concentration at 1 h for this compound: C=CC(=O)Nc1ccc2ncnc(Nc3cccc(Br)c3)c2c1 [PD168393, reference compound]
2

----------
# assayExplanation: Microsome stability, human liver microsomes
measuredParameter: microsomal CLint (µL/min/mg)
Please give a number only; it is taken to be in µL/min/mg.

Form field: reported microsomal CLint of C=CC(=O)Nc1ccc2ncnc(Nc3cccc(Br)c3)c2c1 [PD168393, reference compound]
72.4

----------
# assayExplanation: Plasma stability in mice (20 mg/kg IP)
# Format: in vivo
# conditionDetails: mouse, intraperitoneal, 24 h
measuredParameter: concentration at 24 h

Look up concentration at 24 h: CC(=O)CC(=O)Nc1ccc2ncnc(Nc3cccc(Br)c3)c2c1 [Compound 3a]
< 25 nM

Bench note: what concentration at 24 h did C=CC(=O)Nc1ccc2ncnc(Nc3cccc(Br)c3)c2c1 [PD168393, reference compound] show?
< 5 nM

----------
# assayExplanation: Microsome stability, mouse liver microsomes
# Type: in vitro ADME
# conditionDetails: read-out: Microsome Stability Mouse t1/2
measuredParameter: half-life (min)
Your answer should be a plain number; it is taken to be in min.

• C=CC(=O)Nc1ccc2ncnc(Nc3cccc(Br)c3)c2c1 [PD168393, reference compound] = 3

Moving on to another compound below.
Query (compound): `CC(=O)CC(=O)Nc1ccc2ncnc(Nc3cccc(Br)c3)c2c1` ; field requested: half-life
4

----------
# assayedTarget: PTP1B (Homo sapiens)
# Sequence (P18031 1-435): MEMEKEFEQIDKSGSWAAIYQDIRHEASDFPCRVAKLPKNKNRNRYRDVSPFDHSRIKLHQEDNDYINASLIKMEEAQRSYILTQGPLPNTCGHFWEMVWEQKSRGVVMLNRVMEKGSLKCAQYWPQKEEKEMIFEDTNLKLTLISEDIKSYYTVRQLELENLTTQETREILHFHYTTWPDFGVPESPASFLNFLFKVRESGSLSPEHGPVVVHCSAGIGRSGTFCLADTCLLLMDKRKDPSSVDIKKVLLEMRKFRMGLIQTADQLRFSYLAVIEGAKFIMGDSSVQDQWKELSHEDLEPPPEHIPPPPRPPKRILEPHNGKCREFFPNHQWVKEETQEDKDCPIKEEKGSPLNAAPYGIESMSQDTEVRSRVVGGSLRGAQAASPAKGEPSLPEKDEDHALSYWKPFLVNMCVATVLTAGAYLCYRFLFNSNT
pIC50: −log10 of the molar value.
measuredParameter: pIC50

Fill in the blank: the reported pIC50 of `C#CCCCNC(=O)c1ccc(-c2ccc(NC(=O)C3CC(=O)CC(=O)C3)cc2)cc1` is ____.
~3.60
